Counter-ions that a name gives are not always drawn.
value kind: melting point (°C)

[[record]]
compound = "COc1ccc2occ(CCN3CCN(c4cc(Cl)cc5cccnc45)CC3)c2c1 [Compound 22]"
value_kind = "melting point"
val = 72


[I] COc1cc(N2CCN(CCc3coc4ccc(F)cc34)CC2)c2ncccc2c1 (as salt: HCl) [Compound 16]
[II] COc1cccc2c(C(C)CN3CCN(c4cccc5cccnc45)CC3)coc12 (stereo not drawn) (as salt: HCl) [Compound 31]
Exam item: Please let me know which one, I or II , has a lower measured melting point value. Lab log: write the label of the selected item as the result.
Marked response: I

====

# system tested: Human 5-HT Transporter (Homo sapiens)
# Sequence (P31645 whole entry): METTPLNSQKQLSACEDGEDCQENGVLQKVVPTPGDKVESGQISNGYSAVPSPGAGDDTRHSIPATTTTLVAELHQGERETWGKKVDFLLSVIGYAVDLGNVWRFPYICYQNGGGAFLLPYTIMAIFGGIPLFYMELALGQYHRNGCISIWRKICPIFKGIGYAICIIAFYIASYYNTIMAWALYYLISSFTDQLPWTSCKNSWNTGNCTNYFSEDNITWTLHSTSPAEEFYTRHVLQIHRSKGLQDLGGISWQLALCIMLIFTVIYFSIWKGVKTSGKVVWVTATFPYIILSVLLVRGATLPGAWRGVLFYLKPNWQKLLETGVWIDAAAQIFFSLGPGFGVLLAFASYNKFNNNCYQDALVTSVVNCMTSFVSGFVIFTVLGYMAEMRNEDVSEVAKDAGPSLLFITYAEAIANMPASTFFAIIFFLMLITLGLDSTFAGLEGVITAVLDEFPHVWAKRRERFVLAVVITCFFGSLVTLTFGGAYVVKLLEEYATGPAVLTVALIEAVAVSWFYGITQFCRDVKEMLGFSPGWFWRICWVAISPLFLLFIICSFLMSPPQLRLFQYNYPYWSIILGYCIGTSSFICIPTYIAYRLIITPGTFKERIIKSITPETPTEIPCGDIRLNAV
# method: Inhibition of 3H-5-HT Uptake by Cells Possessing the Human 5-HT Transporter (HC 5HT Transporter), Jar cells
# run parameters: HC-5HTC Transporter Ki (nM), Jar cells treated with staurosporine
value kind: Ki (nM)

[[record]]
compound = "Fc1cc(N2CCN([C@H]3CC[C@@H](c4csc5ccc(F)cc54)CC3)CC2)c2ncccc2c1"
system_tested = "Human 5-HT Transporter (Homo sapiens)"
value_kind = "Ki"
val = 3490

[[record]]
compound = "COc1ccc2occ([C@H]3CC[C@H](N4CCN(c5cc(F)cc6cccnc56)CC4)CC3)c2c1"
system_tested = "Human 5-HT Transporter (Homo sapiens)"
value_kind = "Ki"
val = 3290

[[record]]
compound = "COc1cc(N2CCN(CCc3coc4ccc(OC)cc34)CC2)c2ncccc2c1"
system_tested = "Human 5-HT Transporter (Homo sapiens)"
value_kind = "Ki"
val = 210


[1] COc1ccc2occ(CC(C)N3CCN(c4cc(C)cc5cccnc45)CC3)c2c1 (centres unmarked)
[2] COc1ccc2occ(CCN3CCN(c4cc(F)cc5cccnc45)CC3)c2c1
[3] Fc1cc(N2CCN([C@H]3CC[C@H](c4csc5ccccc54)CC3)CC2)c2ncccc2c1
[4] Fc1cc(N2CCN(CCc3coc4cc(Cl)ccc34)CC2)c2ncccc2c1
[5] Clc1cc(N2CCN([C@H]3CC[C@H](c4csc5ccccc54)CC3)CC2)c2ncccc2c1
Exam item: Order the items by recorded Ki; the first position goes to the largest value. Dear reader, please state the labels in the requested order.
Marked response: 3, 4, 1, 5, 2

The measurements presented in this section are drawn from patent US20090054454A1.
